Biological target: UniProtKB P10721
Sequence (P10721 26-976): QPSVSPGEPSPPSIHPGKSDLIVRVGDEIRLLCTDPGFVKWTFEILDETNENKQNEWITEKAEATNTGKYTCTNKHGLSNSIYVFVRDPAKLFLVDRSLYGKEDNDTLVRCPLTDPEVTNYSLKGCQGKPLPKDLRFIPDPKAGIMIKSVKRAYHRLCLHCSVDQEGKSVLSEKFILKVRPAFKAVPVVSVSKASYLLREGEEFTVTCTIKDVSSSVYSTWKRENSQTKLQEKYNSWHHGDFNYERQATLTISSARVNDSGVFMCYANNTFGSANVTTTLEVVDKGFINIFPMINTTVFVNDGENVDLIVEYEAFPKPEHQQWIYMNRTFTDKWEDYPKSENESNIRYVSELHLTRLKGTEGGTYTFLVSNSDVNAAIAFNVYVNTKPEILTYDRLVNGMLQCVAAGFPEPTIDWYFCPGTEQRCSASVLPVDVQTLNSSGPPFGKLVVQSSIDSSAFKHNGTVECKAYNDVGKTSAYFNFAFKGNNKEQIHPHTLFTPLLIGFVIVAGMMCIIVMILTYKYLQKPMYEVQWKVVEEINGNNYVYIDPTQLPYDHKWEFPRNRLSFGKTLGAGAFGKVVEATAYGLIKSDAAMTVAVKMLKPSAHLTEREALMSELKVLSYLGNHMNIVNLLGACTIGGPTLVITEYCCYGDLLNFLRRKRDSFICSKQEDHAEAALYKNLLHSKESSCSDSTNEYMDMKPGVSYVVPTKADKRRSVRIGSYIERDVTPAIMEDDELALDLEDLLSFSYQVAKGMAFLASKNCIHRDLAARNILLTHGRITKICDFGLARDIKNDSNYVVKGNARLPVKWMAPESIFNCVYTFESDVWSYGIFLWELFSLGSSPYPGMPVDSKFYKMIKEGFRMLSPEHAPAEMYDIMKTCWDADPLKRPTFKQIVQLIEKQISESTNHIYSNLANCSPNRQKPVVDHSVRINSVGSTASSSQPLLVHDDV
Assay: Competition binding assay (Kd), KIT
Conditions: competition binding assay
Overview of reported Kd across a group of compounds:

Past entries and their recorded results:
{"Compound": "CCOc1cc2ncc(-c3ccc(CC(=O)Nc4cc(C5(C(F)(F)F)CC5)on4)c(F)c3)nc2cc1OCC [Example 118]", "Observed Result": "< 5 nM"}
{"Compound": "COCCOc1cc2ncc(-c3ccc(CC(=O)Nc4cc(C(C)(C)C)on4)cc3)nc2cc1OCCOC [Example 120]", "Observed Result": "< 5 nM"}
{"Compound": "COc1cc2ncc(-c3ccc(CC(=O)Nc4cc(C(C)(C)C(F)(F)F)on4)c(F)c3)c(OC)c2cc1OC [Example 145]", "Observed Result": "> 50 nM"}
{"Compound": "COCCOc1cc2ncc(-c3ccc(CC(=O)Nc4cc(C5(C(F)(F)F)CC5)on4)c(F)c3)cc2cc1OC [Example 126]", "Observed Result": "< 5 nM"}
{"Compound": "COc1cc2nc(C(N)=O)c(-c3ccc(CC(=O)Nc4cc(C5(C(F)(F)F)CC5)on4)c(F)c3)nc2cc1OC [Example 135]", "Observed Result": "> 50 nM"}

QUERY: Give a short answer stating reported Kd for COCCOc1cc2cc(-c3ccc(CC(=O)Nc4cc(C(C)(C)C(F)(F)F)on4)c(F)c3)cnc2cc1OC [Example 177] .
RESULT: < 5 nM

QUERY: Give a short answer stating reported Kd for COc1cc2ncc(-c3ccc(CC(=O)Nc4cc(C(C)(C)C(F)(F)F)on4)c(F)c3)cc2cc1OCCN1CC[C@H](O)[C@@H](F)C1 (stereo in doubt) [Example 87] .
RESULT: < 5 nM

QUERY: Give a short answer stating reported Kd for COc1cc2ncc(-c3ccc(CC(=O)Nc4cc(C5(C(F)(F)F)CC5)n[nH]4)c(F)c3)nc2cc1OC [Example 180] .
RESULT: < 5 nM

QUERY: Give a short answer stating reported Kd for O=C(Cc1ccc(-c2cnc3cc4c(cc3n2)O[C@H](CO)CO4)cc1F)Nc1cc(C2(C(F)(F)F)CC2)on1 [Example 122] .
RESULT: < 5 nM

QUERY: Give a short answer stating reported Kd for COc1cc2ncc(-c3ccc(CC(=O)Nc4cc(C(C)(C)C(F)(F)F)on4)c(F)c3)c(N=[N+]=[N-])c2cc1OC [Example 141] .
RESULT: 5 to 20 nM

QUERY: Give a short answer stating reported Kd for CN1CC(NC(=O)c2cc3cc(-c4ccc(CC(=O)Nc5cc(C6(C(F)(F)F)CC6)on5)c(F)c4)cnc3[nH]2)C1 [Example 113] .
RESULT: < 5 nM

QUERY: Give a short answer stating reported Kd for O=C(Cc1ccc(-c2cnc3[nH]ccc3n2)cc1)Nc1cc(C2(C(F)(F)F)CC2)on1 [Example 3] .
RESULT: < 5 nM

QUERY: Give a short answer stating reported Kd for COc1cc2nc(-c3ccc(CC(=O)Nc4cc(C5(C(F)(F)F)CC5)on4)c(F)c3)cnc2cc1OCCN [Example 167] .
RESULT: < 5 nM

QUERY: Give a short answer stating reported Kd for CC(C)(C)c1cc(NC(=O)Cc2ccc(-c3cnc4[nH]nc(-n5nccn5)c4c3)cc2)no1 [Example 101] .
RESULT: < 5 nM

QUERY: Give a short answer stating reported Kd for O=C(Cc1ccc(-c2cnc3cc4c(cc3n2)OC[C@@H](CO)O4)cc1F)Nc1cc(C2(C(F)(F)F)CC2)on1 [Example 121] .
RESULT: < 5 nM

QUERY: Give a short answer stating reported Kd for Nc1nc2ccccc2nc1-c1ccc(CC(=O)Nc2cc(C3(C(F)(F)F)CC3)on2)cc1 [Example 7] .
RESULT: < 5 nM

QUERY: Give a short answer stating reported Kd for O=C(Cc1ccc(-c2cnc3cc(OCCO)c(OCCO)cc3n2)cc1F)Nc1cc(C2(C(F)(F)F)CC2)on1 [Example 75] .
RESULT: < 5 nM

QUERY: Give a short answer stating reported Kd for CC(C)(C)c1cc(NC(=O)Cc2ccc(-c3cnc4[nH]c(C(=O)NCCS(C)(=O)=O)cc4c3)cc2)no1 [Example 68] .
RESULT: < 5 nM

QUERY: Give a short answer stating reported Kd for COc1cc2ncc(-c3ccc(CC(=O)Nc4cc(C(C)(C)C(F)(F)F)on4)c(F)c3)c(Cl)c2cc1OC [Example 138] .
RESULT: < 5 nM

QUERY: Give a short answer stating reported Kd for COc1cc2nc(N)c(-c3ccc(CC(=O)Nc4cc(C5(C(F)(F)F)CC5)on4)c(F)c3)nc2cc1OC [Example 123] .
RESULT: < 5 nM

QUERY: Give a short answer stating reported Kd for COc1ccc2ncc(-c3ccc(CC(=O)Nc4cc(C5(C(F)(F)F)CC5)on4)c(F)c3)nc2n1 [Example 155] .
RESULT: 5 to 20 nM

QUERY: Give a short answer stating reported Kd for COc1n[nH]c2ncc(-c3ccc(CC(=O)Nc4cc(C(C)(C)C(F)(F)F)on4)c(F)c3)cc12 [Example 63] .
RESULT: < 5 nM

The values you see were collected from patent US9725465B2.
